target.entity: human plasma kallikrein (human, UniProt P03952 20-638)
Sequence (P03952 20-638): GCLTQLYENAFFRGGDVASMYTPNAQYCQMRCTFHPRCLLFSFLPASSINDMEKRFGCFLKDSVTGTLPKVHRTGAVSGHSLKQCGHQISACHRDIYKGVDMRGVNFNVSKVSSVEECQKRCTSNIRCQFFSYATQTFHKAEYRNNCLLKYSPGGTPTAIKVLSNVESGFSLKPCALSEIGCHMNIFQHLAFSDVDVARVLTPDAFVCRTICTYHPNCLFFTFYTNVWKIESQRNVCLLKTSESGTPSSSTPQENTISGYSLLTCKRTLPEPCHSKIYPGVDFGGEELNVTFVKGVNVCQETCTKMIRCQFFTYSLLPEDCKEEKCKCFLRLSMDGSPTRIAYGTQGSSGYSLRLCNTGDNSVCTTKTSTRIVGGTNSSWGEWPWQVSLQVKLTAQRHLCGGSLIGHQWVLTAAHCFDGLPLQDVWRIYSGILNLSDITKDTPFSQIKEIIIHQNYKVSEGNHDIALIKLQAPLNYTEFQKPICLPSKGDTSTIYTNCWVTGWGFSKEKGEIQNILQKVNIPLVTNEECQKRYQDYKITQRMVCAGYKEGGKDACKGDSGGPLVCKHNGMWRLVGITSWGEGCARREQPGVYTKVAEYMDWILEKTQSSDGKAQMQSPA
assay.summary: enzyme inhibition
Labelling field: enter fulfilled if recorded Ki is less than 7 nM. Enter not fulfilled if it equals or exceeds that cut-off.

In plain terms, does TW6179 (protein) EVVREVCSEQAETGPCRAGISRWYFDVTEGKCAPFFYGGCGGNRNNFDTEEYCMAVCGSAI come in under 7 nM for Ki?
not fulfilled

In plain terms, does BG031 (protein) EVVREVCSEQAEVGPCRAMISRWYFDVTEGKCAPFFYGGCGGNRNNFDTEEYCMAVCGSAI come in under 7 nM for Ki?
not fulfilled

In plain terms, does DD110 (protein) EVVREVCSEQAETGPCRALISRWYFDVTEGKCAPFFYGGCGGNRNNFDTEEYCMAVCGSAI come in under 7 nM for Ki?
fulfilled

In plain terms, does wild-type KPI (-4→57) (peptide) LDKREVVREVCSEQAETGPCRAMISRWYFDVTEGKCAPFFYGGCGGNRNNFDTEEYCMAVCGSAI come in under 7 nM for Ki?
not fulfilled

In plain terms, does BG032 (protein) EVVREVCSEQAESGPCRAMISRWYFDVTEGKCAPFFYGGCGGNRNNFDTEEYCMAVCGSAI come in under 7 nM for Ki?
not fulfilled

In plain terms, does DD111 (protein) EVVREVCSEQAETGPCRASISRWYFDVTEGKCAPFFYGGCGGNRNNFDTEEYCMAVCGSAI come in under 7 nM for Ki?
fulfilled
